# experiment_summary: ATG_AP_2_CIS: Attagene CIS-FACTORIAL HepG2 Assay for human Activator Protein 2 (AP-2) (AID 2282932)
# particulars: HepG2 AP-2 cis-reporter, Attagene transcription factor profiling; actives raise or lower the signal
Activity calls are given as the source filed them. How the source made its calls: active means hit-call score of the fitted dose curve at least 0.9, where 1 is the maximum; inactive means score below 0.9.
Thanks in advance; please answer with one of these: active, inactive

# example entries with known answers
compound	category_label
CC(=O)[C@H]1CC[C@H]2[C@@H]3CC=C4C[C@@H](O)CC[C@]4(C)[C@H]3CC[C@]12C	inactive
O=C1CCCCCCCCCCCCCCO1	inactive
CC(=O)C=CC1=C(C)CCCC1(C)C	inactive
CSc1nnc(C(C)(C)C)c(=O)[nH]1	inactive
CCc1c(C)cc(N)c(CC)c1N	inactive

How was C=CC(=O)OCC(O)COc1ccccc1 (configuration not stated) classified in this test?
active

How was O=c1cc(-c2ccccc2)oc2cc(O)cc(O)c12 classified in this test?
inactive

====

# Read-out: Plasminogen activator inhibitor-1 (PAI1), SERPINE1 (gene 5054)
# experiment_summary: BSK_CASM3C_PAI1: BioMAP Diversity Plus: CASM3C Assay for Plasminogen activator inhibitor-1 (PAI1) Biomarker Activity (AID 2284284);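 further: PAI-1 protein level measured by ELISA 24 h after dosing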
# particulars: primary human coronary artery smooth muscle cells
Active and inactive are the calls of the source. The calls were made as follows: active = hit-call score of the fitted dose curve at least 0.9, where 1 is the maximum; inactive = score below 0.9.
readout_kind: outcome

Some solved entries appear below for comparison.
compound	outcome
OC[C@H]1O[C@H](O[C@]2(CCl)O[C@H](CCl)[C@@H](O)[C@@H]2O)[C@H](O)[C@@H](O)[C@H]1Cl	inactive
CC[Si](OC(C)=O)(OC(C)=O)OC(C)=O	inactive
C[C@H]1C[C@@H]2[C@H]([C@@H](O)C[C@@]3(C)[C@H]2CC[C@]3(O)C(=O)CO)[C@@]2(C)C=CC(=O)C=C12	inactive
CC(=O)OCCC(C)CC(C)(C)C (stereo not drawn)	inactive
NCCNCCN	inactive

List outcome for every entry below, keeping the order given.
1. Nc1cc([N+](=O)[O-])ccc1O
2. COc1cc(C=O)ccc1OC(=O)C(C)C
3. Cc1cc(C2(c3cc(C)c(O)cc3C)OS(=O)(=O)c3ccccc32)c(C)cc1O

["inactive", "inactive", "inactive"]

====

# Read-out: Urokinase-type plasminogen activator receptor (uPAR), PLAUR (gene 5329)
# experiment_summary: BSK_CASM3C_uPAR: BioMAP Diversity Plus: CASM3C Assay for Urokinase-type plasminogen activator receptor (uPAR) Biomarker Activity (AID 2283054);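 further: cell-surface uPAR protein level quantified by ELISA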
# particulars: primary human coronary artery smooth muscle cells; actives raise or lower the signal
Activity calls are given as the source filed them. How the source made its calls: active means hit-call score of the fitted dose curve at least 0.9, where 1 is the maximum; inactive means score below 0.9.
Thanks in advance; please answer with one of these: 1 = active, 0 = inactive

1) Cc1ccc(Nc2ccc(O)c3c2C(=O)c2ccccc2C3=O)cc1 0
2) Cc1ccc2n[nH]nc2c1 0
3) Cc1ccc(O)c(C(C)(C)C)c1 1
4) C#C[C@]1(O)CC[C@H]2[C@@H]3CCC4=Cc5oncc5C[C@]4(C)[C@H]3CC[C@@]21C 0
5) CCCCC/C=C/C=C/C=O 1

Now examine the next entry.
How was O=C(O)c1cn(-c2ccc(F)cc2)c2cc(N3CCNCC3)c(F)cc2c1=O classified in this test?
0

====

# experiment_summary: ATG_GLI_CIS: Attagene CIS-FACTORIAL HepG2 Assay for human Zinc Finger Protein GLI1 (AID 2282945)
# particulars: HepG2, Attagene cis-factorial reporter mRNA, GLI element; actives raise or lower the signal
Calls of active or inactive are those of the source. How the source made its calls: active means hit-call score of the fitted dose curve at least 0.9, where 1 is the maximum; inactive means score below 0.9.
Thanks in advance; please answer with one of these: active, inactive

# example entries with known answers
compound	category_label
CC1=CC(=O)NS(=O)(=O)O1	inactive
COc1ccc(OC)c(OC)c1	inactive
CCCC1CCC(=O)O1 (centres undefined)	inactive
O=C(O)c1cn(-c2ccc(F)cc2)c2cc(N3CCNCC3)c(F)cc2c1=O	inactive
c1ccc(CCCc2ccccn2)cc1	inactive

How was O=Nc1ccc(Nc2ccccc2)cc1 classified in this test?
active

How was C=C(C)C1CCC(C)CC1O (centres undefined) classified in this test?
inactive

How was CC1CC(OC(=O)c2ccccc2O)CC(C)(C)C1 (centres undefined) classified in this test?
inactive

How was CCC(C)(O)CCC=C(C)C (centres undefined) classified in this test?
inactive

How was CC(=O)O[C@]1(C(C)=O)CC[C@H]2[C@@H]3C[C@H](C)C4=CC(=O)CC[C@]4(C)[C@H]3CC[C@@]21C classified in this test?
inactive

How was CC1=CCC2C(C1)C2(C)C (centres undefined) classified in this test?
inactive

How was CCCCCCCCCCCCCOS(=O)(=O)O classified in this test?
inactive

How was OCc1cccnc1 classified in this test?
inactive

How was CCC(=O)OCc1ccccc1 classified in this test?
inactive

====

# Read-out: Interferon-gamma inducible Protein 10 (IP10), CXCL10 (gene 3627)
# experiment_summary: BSK_hDFCGF_IP10: BioMAP Diversity Plus: hDFCGF Assay for Interferon-gamma inducible Protein 10 (IP10) Biomarker Activity (AID 2283053)
# particulars: primary human foreskin fibroblasts; actives raise or lower the signal
Activity calls are given as the source filed them. Rule for the calls: active = hit-call score of the fitted dose curve at least 0.9, where 1 is the maximum; inactive = score below 0.9.
Thanks in advance; please answer with one of these: true (1) = active, false (0) = inactive

# example entries with known answers
compound	category_label
COC(=O)c1ccc(C)cc1	false (0)
O=C(O)c1ccc([N+](=O)[O-])cc1	false (0)
CCCCC/C=C/C=C/C=O	true (1)
CC1COc2ccccc2N1C(=O)C(Cl)Cl (stereo not drawn)	false (0)

Now examine the next entry.
How was N#Cc1ccc(CC(=NNC(=O)Nc2ccc(OC(F)(F)F)cc2)c2cccc(C(F)(F)F)c2)cc1 classified in this test?
false (0)

====

# system_tested: human Matrix Metalloproteinase-9 (MMP9), MMP9 (gene 4318)
# experiment_summary: NVS_ENZ_hMMP9: NovaScreen (NVS) Enzymatic Assay for human Matrix Metalloproteinase-9 (MMP9) (AID 2283190);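 further: cell-free recombinant MMP9 protease activity read by fluorescent substrate signal; active means inhibition seen as loss of fluorescence signal versus DMSO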
# Method: NVS_ENZ_hMMP9 is a biochemical, single-readout assay that uses extracted gene-proteins in a cell-free assay. Measurements were taken 1 hour after chemical dosing in a 96-well plate.NVS_ENZ_hMMP9 is one of one assay component(s) measured or calculated from the NVS_ENZ_hMMP9 assay. […] This assay endpoint, NVS_ENZ_hMMP9, was analyzed in the positive analysis fitting direction relative to DMSO as the negative control and baseline of activity. […]
Inconclusive results are not listed. The source made the active and inactive calls. The calls were made as follows: active = hit-call score of the fitted dose curve at least 0.9, where 1 is the maximum; inconclusive = response in the unintended direction; inactive = score below 0.9.
Thanks in advance; please answer with one of these: t = active, f = inactive

compound	category_label
CC1CCC(C(C)CS)CC1S (stereo not drawn)	t

How was CCCCC/C=C/C=C/C=O classified in this test?
t

How was CC(=O)O[C@]1(C(C)=O)CC[C@H]2[C@@H]3C[C@H](C)C4=CC(=O)CC[C@]4(C)[C@H]3CC[C@@]21C classified in this test?
f

====

# system_tested: Retinoic acid receptor RXR-alpha (Homo sapiens) (UniProt P19793)
# Sequence (P19793 whole entry, looked up): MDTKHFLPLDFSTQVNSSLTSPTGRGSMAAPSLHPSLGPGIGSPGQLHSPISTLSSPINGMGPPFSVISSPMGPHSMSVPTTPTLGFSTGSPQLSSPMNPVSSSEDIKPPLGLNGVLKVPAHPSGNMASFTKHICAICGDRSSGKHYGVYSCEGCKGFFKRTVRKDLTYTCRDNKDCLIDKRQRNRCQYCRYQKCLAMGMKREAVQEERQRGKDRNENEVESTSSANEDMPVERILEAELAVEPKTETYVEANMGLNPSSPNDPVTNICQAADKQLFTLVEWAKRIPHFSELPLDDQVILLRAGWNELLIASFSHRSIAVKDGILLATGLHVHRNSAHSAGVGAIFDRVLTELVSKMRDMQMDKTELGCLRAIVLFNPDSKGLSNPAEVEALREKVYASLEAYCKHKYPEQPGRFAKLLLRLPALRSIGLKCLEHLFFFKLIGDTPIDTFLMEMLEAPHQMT
# experiment_summary: OT_NURR1_NURR1RXRa_0480: Odyssey Thera (OT) 8-hour HEK293T Protein Complementation Assay for Nurr1/retinoid X receptor (RXR) (AID 2283385)
Inconclusive results are not listed. Calls of active or inactive are those of the source. The calls were made as follows: active = hit-call score of the fitted dose curve at least 0.9, where 1 is the maximum; inconclusive = response in the unintended direction; inactive = score below 0.9.
Thanks in advance; please answer with one of these: Y for active, N for inactive

# example entries with known answers
compound	category_label
NCCCN1CCOCC1	N
CCCCCCCCCCCCCCCCCC(=O)OCC(CC)CCCC (configuration not stated)	N
CCCCCCCCC=O	N
O=C1NC(=O)c2ccccc21	N
C=O	N

How was CC1COc2ccccc2N1C(=O)C(Cl)Cl (configuration not stated) classified in this test?
N

How was OC1OC[C@@H](O)[C@H](O)[C@H]1O (some centres not stated) classified in this test?
N

How was Cc1ccc(O)c(C(C)(C)C)c1 classified in this test?
Y

How was CCCCCCCCCCCCCCCC(=O)O classified in this test?
N

====

# system_tested: Retinoic acid receptor alpha (Homo sapiens)
# experiment_summary: ATG_DR5_RAR_CIS: Attagene CIS-FACTORIAL HepG2 Assay for human Retinoic Acid Receptor Alpha (RARE), DR5 submotif (AID 2282934)
# particulars: HepG2 Attagene cis-factorial RARE DR5 reporter, mRNA; actives raise or lower the signal
Activity calls are given as the source filed them. The calls were made as follows: active = hit-call score of the fitted dose curve at least 0.9, where 1 is the maximum; inactive = score below 0.9.
Thanks in advance; please answer with one of these: active, inactive

# example entries with known answers
compound	category_label
O=C(O)CCCCCCCC(=O)O	inactive
CCC(=O)OCCC(C)CCC=C(C)C (stereo not drawn)	active
Cc1cccc(C)c1[N+](=O)[O-]	inactive

How was CC(C)=CCC/C(C)=C/COC=O classified in this test?
inactive

====

# system_tested: X-box-binding protein 1 (Homo sapiens) (UniProt P17861)
# Sequence (P17861 whole entry, looked up): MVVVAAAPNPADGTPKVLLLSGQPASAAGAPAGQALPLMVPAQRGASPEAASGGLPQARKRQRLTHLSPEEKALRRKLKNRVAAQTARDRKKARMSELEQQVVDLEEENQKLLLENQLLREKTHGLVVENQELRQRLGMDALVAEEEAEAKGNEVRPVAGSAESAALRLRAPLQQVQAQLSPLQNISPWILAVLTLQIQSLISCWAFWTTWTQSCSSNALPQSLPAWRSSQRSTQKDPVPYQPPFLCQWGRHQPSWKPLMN
# experiment_summary: ATG_Xbp1_CIS: Attagene CIS-FACTORIAL HepG2 Assay for human X-box Binding Protein 1 (XBP1) (AID 2282972)
# particulars: HepG2 XBP1 cis-element reporter, Attagene multiplex; actives raise or lower the signal
Activity calls are given as the source filed them. Rule for the calls: active = hit-call score of the fitted dose curve at least 0.9, where 1 is the maximum; inactive = score below 0.9.
readout_kind: outcome

Some solved entries appear below for comparison.
compound	recorded_measurement
CN(C)c1ccc(O)c2c1C[C@H]1C[C@H]3[C@H](N(C)C)C(=O)C(C(N)=O)=C(O)[C@@]3(O)C(=O)C1=C2O	inactive
CC1=CCC2C(C1)C2(C)C (configuration not stated)	inactive
CCCCCOC(=O)CCC	inactive
Cc1c(N(C)C)c(=O)n(-c2ccccc2)n1C	inactive
CCCOCC(C)O (configuration not stated)	inactive

List outcome for every entry below, keeping the order given.
1. CC(C)c1cccc(O)c1
2. CCCCC(CC)COCCC#N (configuration not stated)

1: inactive; 2: inactive
